# Test Target: T1, human GFRα3 expressed with a C-terminal mFc tag (human)
# T1 construct: also called hGFRα3-mFc
# T1 chain: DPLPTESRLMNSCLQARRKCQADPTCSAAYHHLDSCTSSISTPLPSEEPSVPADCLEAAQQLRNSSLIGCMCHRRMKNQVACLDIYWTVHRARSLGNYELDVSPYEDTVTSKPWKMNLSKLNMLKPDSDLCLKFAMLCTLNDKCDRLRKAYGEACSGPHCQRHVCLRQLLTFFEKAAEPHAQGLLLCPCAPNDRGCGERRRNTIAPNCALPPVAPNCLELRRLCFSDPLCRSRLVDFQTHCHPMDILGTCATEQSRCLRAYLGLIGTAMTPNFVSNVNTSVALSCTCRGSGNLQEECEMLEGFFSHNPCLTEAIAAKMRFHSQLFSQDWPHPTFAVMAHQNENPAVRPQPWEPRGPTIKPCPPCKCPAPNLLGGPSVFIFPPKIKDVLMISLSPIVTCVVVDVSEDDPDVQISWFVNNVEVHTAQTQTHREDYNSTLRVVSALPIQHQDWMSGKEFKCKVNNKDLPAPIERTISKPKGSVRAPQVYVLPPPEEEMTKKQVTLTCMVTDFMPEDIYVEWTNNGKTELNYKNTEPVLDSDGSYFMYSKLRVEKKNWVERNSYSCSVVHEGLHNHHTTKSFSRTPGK
# Test Details: SPR, Ab captured, 37C
# kon per record follows
Give a bare numeral; the unit M⁻¹ s⁻¹ is implied.

{"Binder": "H4H2293P (antibody, human IgG4, V domains shown, human IgG4 Fc (H4H)) VH: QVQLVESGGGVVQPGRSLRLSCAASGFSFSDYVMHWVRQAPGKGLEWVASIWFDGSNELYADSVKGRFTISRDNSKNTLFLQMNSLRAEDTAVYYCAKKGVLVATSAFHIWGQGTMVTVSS VL: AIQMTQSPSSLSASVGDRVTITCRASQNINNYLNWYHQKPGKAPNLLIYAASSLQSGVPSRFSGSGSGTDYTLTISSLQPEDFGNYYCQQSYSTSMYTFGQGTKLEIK", "Reported": "1.71e+06"}
{"Binder": "H4H2344S (antibody, human IgG4, V domains shown, human IgG4 Fc (H4H)) VH: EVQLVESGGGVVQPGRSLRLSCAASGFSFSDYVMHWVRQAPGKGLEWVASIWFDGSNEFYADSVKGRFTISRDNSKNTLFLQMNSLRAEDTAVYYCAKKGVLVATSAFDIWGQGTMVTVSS VL: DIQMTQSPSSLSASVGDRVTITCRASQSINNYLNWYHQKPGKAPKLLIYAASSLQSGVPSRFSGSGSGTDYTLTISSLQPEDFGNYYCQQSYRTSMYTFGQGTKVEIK", "Reported": "1.01e+06"}

We now examine a further binder.
Reported kon ( H4H2354S (antibody, human IgG4, V domains shown, human IgG4 Fc (H4H); also called H4H2354S-1) VH: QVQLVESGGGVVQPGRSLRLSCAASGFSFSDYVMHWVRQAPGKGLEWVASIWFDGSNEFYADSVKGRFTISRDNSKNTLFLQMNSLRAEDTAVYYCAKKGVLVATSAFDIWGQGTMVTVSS VL: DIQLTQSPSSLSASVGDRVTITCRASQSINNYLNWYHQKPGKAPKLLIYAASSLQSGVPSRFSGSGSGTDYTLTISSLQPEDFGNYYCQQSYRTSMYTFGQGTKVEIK ) = 1.02e+06
